assay: chemical genetic growth profiling, strain panel (AID 1159580);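 note: tested at 20 µM; growth read once vehicle control cultures reached saturation at 30 °C; 1 = growth at the plate median or of vehicle wells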; conditions: S. cerevisiae deletion strains, growth OD, locus YKL068W
About 2,000 (36%) of roughly 5,500 compounds were called active. Another 18% or so got no clear call; they are omitted. Cut-off read from the data, not from the text of the source: active = normalized growth mostly below about 0.91 (no sharp cut-off); inconclusive = no clear call, values can overlap the other calls; inactive = mostly above about 0.92. This is one part of the list.
Give one outcome, nothing more. List: active, inactive

Exercise: What was the test verdict on C/C=C(\C)C(=O)O[C@H]1C[C@@H](OC(C)=O)[C@@]2(C(=O)OC)CO[C@@H]3C2[C@]12CO[C@](O)(C(=O)OC)[C@H]2[C@](C)(C12O[C@@]1(C)[C@H]1C[C@@H]2OC2OC=C[C@@]21O)[C@@H]3O (some centres undefined) ?
Solution: inactive

Exercise: What was the test verdict on "COc1ccc(-c2coc3cc(O)ccc3c2=O)cc1" ?
Solution: inactive

Exercise: What was the test verdict on CC[C@@H](C(=O)C(C)[C@@H](O)[C@H](C)CCc1ccc(C)c(O)c1C(=O)O)C1OC(CC)(C2CC[C@](O)(CC)[C@H](C)O2)C[C@@H]1C (some centres undefined) ?
Solution: inactive

Exercise: What was the test verdict on CCn1cc(C(=O)O)c(=O)c2cc(F)c(N3CCNC(C)C3)c(F)c21 (centres undefined) ?
Solution: inactive

Exercise: What was the test verdict on OCC(O)CN1CCN(c2ccccc2)CC1 (centres undefined) ?
Solution: inactive

Exercise: What was the test verdict on "COc1ccc(-c2coc3cc(OC)ccc3c2=O)cc1" ?
Solution: active

Exercise: What was the test verdict on "O=c1cccc2ccc(O)c(O)c2c1O" ?
Solution: active

Exercise: What was the test verdict on "COc1cc2c(cc1OC)C(=O)c1ccc(OC)c(OC)c1OCC(=O)C2" ?
Solution: inactive

Exercise: What was the test verdict on "NCCCS(=O)(=O)O" ?
Solution: inactive

Exercise: What was the test verdict on CC1CCc2cc(F)cc3c(=O)c(C(=O)O)cn1c23 (centres undefined) ?
Solution: inactive

Exercise: What was the test verdict on "CN1CC(CO)=C[C@@H]2c3cccc4[nH]cc(c34)C[C@H]21" ?
Solution: inactive

Exercise: What was the test verdict on "COC(=O)c1cc(=O)c(O)c2c(O)c(O)ccc2c1" ?
Solution: active

Exercise: What was the test verdict on "COc1ccc(C(=O)O)cc1OC" ?
Solution: inactive

Exercise: What was the test verdict on CC1COc2c(N3CCN(C)CC3)c(F)cc3c(=O)c(C(=O)O)cn1c23 (centres undefined) ?
Solution: inactive

Exercise: What was the test verdict on "CN1CC(=O)N=C1N" ?
Solution: inactive

Exercise: What was the test verdict on "Cc1ncc(CNC(=O)N(CCCl)N=O)c(N)n1" ?
Solution: inactive

Exercise: What was the test verdict on "C[n+]1c2cc(N)ccc2cc2ccc(N)cc21" ?
Solution: inactive

Exercise: What was the test verdict on "O=c1c(-c2ccc(O)cc2)coc2cc(O)ccc12" ?
Solution: inactive

Exercise: What was the test verdict on "COc1ccc(-c2coc3cc(O)ccc3c2=O)c(OC)c1" ?
Solution: inactive

Exercise: What was the test verdict on c1ccc2c(c1)CCCC2C1=NCCN1 (centres undefined) ?
Solution: inactive

Exercise: What was the test verdict on "COc1ccc(-c2coc3cc(O)ccc3c2=O)c(OC)c1O" ?
Solution: inactive

Exercise: What was the test verdict on "CNC(=O)O/N=C(\C)SC" ?
Solution: inactive

Exercise: What was the test verdict on "COc1cc(CNC(=O)CCCC/C=C/C(C)C)ccc1O" ?
Solution: inactive

Exercise: What was the test verdict on CCN1CCCC(OC(=O)C(c2ccccc2)c2ccccc2)C1 (centres undefined) ?
Solution: inactive

---

assay: chemical genetic growth profiling, strain panel (AID 1159580); conditions: S. cerevisiae deletion strains, growth OD, locus YBL105C, strain PKC1, hits give low values
In all, about 5,500 compounds went through this assay and about 2,000 (36%) were called active. Another 18% or so got no clear call; they are omitted. The list shows a part of the results.
endpoint.name: normalized growth
Give bare numbers.

List the reported normalized growth of each molecule below.
1. CCOC(=O)C1C(c2c(F)cccc2Cl)C(C(=O)OCC)C(O)(C(F)(F)F)NC1(O)C(F)(F)F (stereo not drawn)
2. O=[N+]([O-])c1ccc(-c2noc(-c3ccno3)n2)o1
3. O=C(c1csc(-c2ccc(Cl)cc2)c1)N1CCCCC1
4. N#C/C(=N/Nc1ccccc1)C(=O)c1ccccc1OC(F)(F)F
5. N#C/C(=N/Nc1ccc(F)cc1)C(=O)c1ccccc1
6. Cc1ccc(S(=O)(=O)NC(=O)Nc2ccc(Sc3ccccc3)nc2Sc2ccccc2)cc1

Solution:
0.988
0.118
0.953
0.912
0.855
0.967

---

test: chemical genetic growth profiling, strain panel (AID 1159580); details: S. cerevisiae deletion strains, growth OD, locus YPL204W, strain HRR25
The campaign covered roughly 5,500 compounds. About 2,000 (36%) were called active. Not shown: some 18% with an inconclusive outcome. Cut-off read from the data, not from the text of the source: active = normalized growth mostly below about 0.91 (no sharp cut-off); inconclusive = no clear call, values can overlap the other calls; inactive = mostly above about 0.92. Some of the results follow.
Give one outcome, nothing more. List: yes for active, no for inactive

Answered examples (2):
INSERT INTO results (test_smiles, class) VALUES
  ('O=C(NCc1ccc(Cl)c(Cl)c1)c1cccnc1OCC(F)(F)F', 'no'),
  ('CC(C)(C)c1ccc(N/N=C(\C#N)C(N)=O)cc1', 'yes');

# ---- query molecule ----
Exercise: What was the test verdict on "Fc1cc(I)ccc1Nc1ccnc2cc(Cl)ccc12" ?
Solution: no

---

test: chemical genetic growth profiling, strain panel (AID 1159580);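 note: tested at 20 µM; growth read once vehicle control cultures reached saturation at 30 °C; 1 = growth at the plate median or of vehicle wells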; conditions: S. cerevisiae deletion strains, growth OD, locus YNL248C, strain rpa49, hits give low values
About 2,000 (36%) of roughly 5,500 compounds were called active. Another 18% or so got no clear call; they are omitted. The list shows a part of the results.
endpoint.name: normalized growth
Give bare numbers.

Some compounds with known normalized growth results, for comparison:
INSERT INTO measurements (compound, endpoint_name, reported_measurement) VALUES
  ('Cn1c(=O)c2c(ncn2CC(O)CO)n(C)c1=O (configuration not stated)', 'normalized growth', 0.978),
  ('C#CCN(C)Cc1ccccc1', 'normalized growth', 1.03),
  ('COc1ccc(C(c2ccc(OC)cc2)C(Cl)(Cl)Cl)cc1', 'normalized growth', 1.01),
  ('COc1ccc(C(CN(C)C)C2(O)CCCCC2)cc1 (configuration not stated)', 'normalized growth', 0.925),
  ('COc1ccc2c(c1)OC/C(=C\c1ccc(OC)c(O)c1)C2=O', 'normalized growth', 0.902),
  ('Clc1ccc(C(c2ccc(Cl)cc2)C(Cl)(Cl)Cl)cc1', 'normalized growth', 1);

Now, please, on to the next compound.
Exercise: Looking for the measured normalized growth of "O=C(O)CCCc1ccc(N(CCCl)CCCl)cc1" , can you help?
Solution: 0.882

---

For each record, write down the corresponding normalized growth.
test: chemical genetic growth profiling, strain panel (AID 1159580);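 note: tested at 20 µM; growth read once vehicle control cultures reached saturation at 30 °C; 1 = growth at the plate median or of vehicle wells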; settings: S. cerevisiae deletion strains, growth OD, locus YCL069W, strain vba3, hits give low values
Screen size: about 5,500 compounds; about 2,000 (36%) were called active. Inconclusive results (about 18%) are left out. The list shows a part of the results.

Some compounds with known normalized growth results, for comparison:
INSERT INTO assay_data (compound, reported_measurement) VALUES
  ('Cn1c(=O)c2c(ncn2CC(O)CO)n(C)c1=O (stereo unspecified)', '0.953 (inactive)'),
  ('Oc1ccc2c(c1)O[C@H](c1ccc(O)c(O)c1)[C@@H](O)C2', '1.03 (inactive)'),
  ('Nc1nc(=S)c2[nH]cnc2[nH]1', '0.976 (inactive)');

List the reported normalized growth of each compound below.
1. CCN1CCCC(OC(=O)C(c2ccccc2)c2ccccc2)C1 (stereo unspecified)
2. Oc1cc(O)c2c(c1)O[C@H](c1ccc(O)c(O)c1)[C@@H](O)C2
3. COc1ccc([C@H]2Oc3c(I)c(OC)cc(OC)c3C[C@@H]2O)cc1OC

Solution:
1: 0.989 (inactive); 2: 1 (inactive); 3: 1.02 (inactive)

---

experiment: chemical genetic growth profiling, strain panel (AID 1159580);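 note: tested at 20 µM; growth read once vehicle control cultures reached saturation at 30 °C; 1 = growth at the plate median or of vehicle wells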; conditions: S. cerevisiae deletion strains, growth OD, locus YOR106W, strain vam3, hits give low values
Among all 5,500 compounds or so, about 2,000 (36%) were called active. Roughly 18% stayed inconclusive and do not appear here. The list shows a part of the results.
Lab note: cut-off is 0.6. Strictly less in normalized growth is 1. Exactly 0.6 or more is -1.

Answered examples (2):
INSERT INTO measurements (molecule, class) VALUES
  ('COC(=O)c1cc(=O)c(O)c2c(O)c(O)ccc2c1', -1),
  ('O=C(/C=C/c1ccc(O)c(O)c1)OC(Cc1ccc(O)c(O)c1)C(=O)O (stereo unspecified)', -1);

Exercise: Given "COc1ccc(-c2coc3cc(O)ccc3c2=O)c(OC)c1O" , is recorded normalized growth strictly lower than 0.6?
Solution: -1

Exercise: Given N=c1ccn2c(n1)OC1C(O)C(CO)OC12 (stereo unspecified) , is recorded normalized growth strictly lower than 0.6?
Solution: -1

Exercise: Given "CN1C2C[C@H](OC(=O)[C@H](CO)c3ccccc3)C[C@H]1[C@@H](O)C2" , is recorded normalized growth strictly lower than 0.6?
Solution: -1

Exercise: Given "COc1ccc(-c2coc3cc(O)ccc3c2=O)c(O)c1O" , is recorded normalized growth strictly lower than 0.6?
Solution: 1

Exercise: Given "O=c1c(-c2ccc(O)cc2)coc2cc(O)ccc12" , is recorded normalized growth strictly lower than 0.6?
Solution: -1
